biological target: Human JAK2 (Homo sapiens, UniProt O60674); construct: purchased Millipore, Germany; test: In-vitro kinase inhibition test, JAK2; assay type: biochemical; conditions: compound at 1 uM; read-out: JAK2 kinase-phosphorylation inhibitory level (% inhibition)
Sequence (O60674 whole entry): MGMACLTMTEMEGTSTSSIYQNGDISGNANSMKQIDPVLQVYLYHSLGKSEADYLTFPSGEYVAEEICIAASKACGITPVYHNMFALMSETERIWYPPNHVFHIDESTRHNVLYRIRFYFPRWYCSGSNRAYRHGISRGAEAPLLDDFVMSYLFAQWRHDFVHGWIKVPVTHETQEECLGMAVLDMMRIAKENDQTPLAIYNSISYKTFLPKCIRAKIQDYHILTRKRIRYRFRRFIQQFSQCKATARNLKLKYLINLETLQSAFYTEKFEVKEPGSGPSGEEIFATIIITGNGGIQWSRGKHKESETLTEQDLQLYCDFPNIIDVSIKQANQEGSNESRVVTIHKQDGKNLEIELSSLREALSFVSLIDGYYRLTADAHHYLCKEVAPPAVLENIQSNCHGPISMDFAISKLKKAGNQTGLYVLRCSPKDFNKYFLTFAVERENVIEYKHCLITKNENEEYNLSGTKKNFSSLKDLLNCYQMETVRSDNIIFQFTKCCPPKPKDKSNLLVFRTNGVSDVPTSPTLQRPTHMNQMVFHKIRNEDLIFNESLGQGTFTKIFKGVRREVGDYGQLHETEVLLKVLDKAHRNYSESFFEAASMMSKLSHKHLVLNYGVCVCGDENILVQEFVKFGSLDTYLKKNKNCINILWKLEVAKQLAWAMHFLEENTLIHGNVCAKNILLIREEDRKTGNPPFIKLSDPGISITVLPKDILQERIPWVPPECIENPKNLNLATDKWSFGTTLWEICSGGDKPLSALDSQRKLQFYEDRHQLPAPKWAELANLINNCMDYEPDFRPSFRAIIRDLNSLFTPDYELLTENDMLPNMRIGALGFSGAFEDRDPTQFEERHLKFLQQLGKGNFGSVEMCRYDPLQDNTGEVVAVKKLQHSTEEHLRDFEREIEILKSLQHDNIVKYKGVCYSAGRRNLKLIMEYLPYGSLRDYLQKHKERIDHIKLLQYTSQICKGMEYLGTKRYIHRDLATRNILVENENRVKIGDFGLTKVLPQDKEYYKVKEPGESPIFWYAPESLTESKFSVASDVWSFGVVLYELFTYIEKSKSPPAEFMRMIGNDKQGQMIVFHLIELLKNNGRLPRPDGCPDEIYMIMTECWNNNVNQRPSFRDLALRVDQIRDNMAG
For each entry below, report its inhibition at 1 µM value.
Give bare numbers, in %.

In the examples that follow, each entry is paired with its recorded inhibition at 1 µM.
>>> measured_number("CN(c1ncnc2[nH]ccc12)C1CCN(C(=O)CC#N)CC1 [Example 37]")
1
>>> measured_number("CCS(=O)(=O)N1CC[C@@H](N(C)c2ncnc3[nH]ccc23)C1 [Example 10]")
27
>>> measured_number("CN(c1ncnc2[nH]ccc12)C1CCN(S(=O)(=O)c2ccccc2)CC1 [Example 38]")
94
>>> measured_number("CN(c1ncnc2[nH]ccc12)[C@@H]1CCN(S(=O)(=O)c2ccccc2)C1 [Example 14]")
69

Provide inhibition at 1 µM for all items below, preserving their order.
1. CN(c1ncnc2[nH]ccc12)[C@@H]1CCN(S(=O)(=O)c2ccc(C(F)(F)F)cc2)C1 [Example 27]
2. N#CCC(=O)N1CC[C@@H](N(CC2CC2)c2ncnc3[nH]ccc23)C1 [Example 35]
3. CN(c1ncnc2[nH]ccc12)[C@H]1CCN(C(=O)CC#N)C1 [Example 31]
4. CN(c1ncnc2[nH]ccc12)[C@@H]1CCN(S(=O)(=O)c2ccccc2[N+](=O)[O-])C1 [Example 21]
5. N#CCC(=O)N1CCCC(COc2ncnc3[nH]ccc23)C1 (stereo not drawn) [Example 47]
6. Cc1cccc(S(=O)(=O)N2CC[C@@H](N(C)c3ncnc4[nH]ccc34)C2)c1 [Example 24]

[21, 34, -6, 48, 10, 53]

Provide inhibition at 1 µM for all items below, preserving their order.
1. CN(c1ncnc2[nH]ccc12)[C@@H]1CCN(S(=O)(=O)c2cn(C)cn2)C1 [Example 13]
2. CN(c1ncnc2[nH]ccc12)[C@@H]1CCN(C(=O)CN=[N+]=[N-])C1 [Example 4]
3. COc1ccc(S(=O)(=O)N2CC[C@@H](N(C)c3ncnc4[nH]ccc34)C2)cc1 [Example 26]
4. CN(c1ncnc2[nH]ccc12)[C@@H]1CN(C(=O)CC#N)CC1(C)C [Example 44]
5. CN(c1ncnc2[nH]ccc12)[C@@H]1CCN(S(=O)(=O)c2ccc(C#N)cc2)C1 [Example 20]
6. CN(c1ncnc2[nH]ccc12)C1CCN(S(=O)(=O)c2cccc(C#N)c2)CC1 [Example 39]
7. N#CCC(=O)N1CCC(Oc2ncnc3[nH]ccc23)CC1 [Example 45]
8. CN(c1ncnc2[nH]ccc12)[C@@H]1CCCN(C(=O)CC#N)C1 [Example 40]

1: 9; 2: 79; 3: 44; 4: -8; 5: 46; 6: 59; 7: 5; 8: 83
